Measured shrunken log2 fold change by item
System: Escherichia coli TOP10;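 further: peptides expressed intracellularly from a pBAD plasmid library in pooled LB shake-flask culture, induced with 0.3% L-arabinose, DNA abundance read by NGS, three biological replicates, DESeq2 with apeglm shrinkage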
Assay: shrunken log2 fold change of peptide-encoding DNA abundance (4.5 h post-induction vs induction); higher = less antimicrobial activity (less host growth inhibition)
Conditions: time post-induction: 4.5 h; library: site-saturation at positions 5, 18, 19, 20
Please give only the number in your answer, with no unit.

> print(dat)
           sequence.string  recorded.measurement
1  RRIRQRPPRLPRPRPRPVYEPRP               -0.0143
2  RRIRRRPPRLPRPRPRPKKAPRP              -0.00843
3  RRIRGRPPRLPRPRPRPFAPPRP                     1
4  RRIRFRPPRLPRPRPRPHWKPRP                -0.162

**Query** Look at this sequence and give its reported shrunken log2 fold change. RRIRFRPPRLPRPRPRPHLNPRP
**Result** -0.624
